system: monkey primary hepatocytes; assay: Metabolic disposition of [^14C]-Compound 1 and [^14C]-2′-C-methyl guanosine in monkey primary hepatocytes (incubation medium, cellular extracts, nucleotide levels); type: in vitro ADME, Cynomolgus monkey; conditions: monkey hepatocytes (Cy234), 10 μM [^14C]-Compound 1, 4 h
quantity name: metabolites observed in cellular extracts (% of total radioactivity) (%)
Please respond with the number in % and leave the unit unwritten.

Here's what some known entries look like.
Req: For the molecule CC(C)(CO)C(=O)SCCOP(=O)(NCc1ccccc1)OC[C@H]1O[C@@H](n2cnc3c(=O)[nH]c(N)nc32)[C@](C)(O)[C@@H]1O (mixture of isomers) [Compound 1] , what metabolites observed in cellular extracts (% of total radioactivity) is on record?
Resp: 3.03

Req: # metabolites observed in cellular extracts (% of total radioactivity) lookup, item C[C@@]1(O)[C@H](O)[C@@H](CO)O[C@H]1n1cnc2c(=O)[nH]c(N)nc21 [2′-C-methyl guanosine, 9-(2-C-methyl-β-D-ribofuranosyl)guanine, reference compound]
Resp: 1.35

Others:
Req: # metabolites observed in cellular extracts (% of total radioactivity) lookup, item C[C@@]1(O)[C@H](O)[C@@H](COP(=O)(O)O)O[C@H]1n1cnc2c(=O)[nH]c(N)nc21 [Compound 5]
Resp: 5.47

----------
assay: Metabolite profile in rat urine; format: in vivo, male Sprague-Dawley rats; conditions: group 1C (IV dose) urine, total of all collections
Rule: Total % AD under 0.4 % AD gives rule not met, otherwise rule met.

Take a look at these entries with their results.
Req: // inclusive: Total % AD at least 0.4 % AD? input: CC(C)(CO)C(=O)SCCOP(=O)(NCc1ccccc1)OC[C@H]1O[C@@H](n2cnc3c(=O)[nH]c(N)nc32)[C@](C)(O)[C@@H]1O (mixture of isomers) [Compound 1]
Resp: rule met

Req: Reported Total % AD reaches at least 0.4 % AD for C[C@@]1(O)[C@H](O)[C@@H](CO)O[C@H]1n1cnc2c(=O)[nH]c(N)nc21 [2′-C-methyl guanosine, 9-(2-C-methyl-β-D-ribofuranosyl)guanine, reference compound] ?
Resp: rule met

Req: Check this molecule for Total % AD at or above 0.4 % AD: CC(C)(CO)C(=O)SCCOP(N)(=O)OC[C@H]1O[C@@H](n2cnc3c(=O)[nH]c(N)nc32)[C@](C)(O)[C@@H]1O (single isomer, unassigned; diastereomer 1) [Compd 3 Diastereomer 1]
Resp: rule not met

Below: the item to evaluate.
Req: Decide: Total % AD of C[C@@]1(O)[C@H](O)[C@@H](COP(=O)(O)NCc2ccccc2)O[C@H]1n1cnc2c(=O)[nH]c(N)nc21 [Compound 2] >= 0.4 % AD?
Resp: rule met

----------
experiment: Metabolite profile in rat liver; assay type: in vivo, male Sprague-Dawley rats; conditions: male, Sprague-Dawley, rat, liver, iv, 50 mg/kg, group 1 (IV dose) pooled liver, 6 h; read-out: liver concentration as μg equivalents/g
quantity name: concentration at 6 h
Just the number plus its unit, please.

Req: Find the recorded concentration at 6 h belonging to C[C@@]1(O)[C@H](O)[C@@H](COP(=O)(O)OP(=O)(O)O)O[C@H]1n1cnc2c(=O)[nH]c(N)nc21 and report it.
Resp: 27500 ng/g

Req: Item C[C@@]1(O)[C@H](O)[C@@H](CO)O[C@H]1n1cnc2c(=O)[nH]c(N)nc21 [2′-C-methyl guanosine, 9-(2-C-methyl-β-D-ribofuranosyl)guanine, reference compound] has what recorded concentration at 6 h?
Resp: 20000 ng/g

Req: Record request: concentration at 6 h value, item C[C@@]1(O)[C@H](O)[C@@H](COP(=O)(O)OP(=O)(O)OP(=O)(O)O)O[C@H]1n1cnc2c(=O)[nH]c(N)nc21
Resp: 480 ng/g

Req: For the compound shown here, C[C@@]1(O)[C@H](O)[C@@H](COP(=O)(O)O)O[C@H]1n1cnc2c(=O)[nH]c(N)nc21 , give the reported concentration at 6 h.
Resp: 86200 ng/g

Hey, just so you know, these numbers are from patent US20100003217A1.
